# log10 of IC50 per record follows
- MEASURED ON: UniProt:P15144
- Sequence (P15144 whole entry, species assumed): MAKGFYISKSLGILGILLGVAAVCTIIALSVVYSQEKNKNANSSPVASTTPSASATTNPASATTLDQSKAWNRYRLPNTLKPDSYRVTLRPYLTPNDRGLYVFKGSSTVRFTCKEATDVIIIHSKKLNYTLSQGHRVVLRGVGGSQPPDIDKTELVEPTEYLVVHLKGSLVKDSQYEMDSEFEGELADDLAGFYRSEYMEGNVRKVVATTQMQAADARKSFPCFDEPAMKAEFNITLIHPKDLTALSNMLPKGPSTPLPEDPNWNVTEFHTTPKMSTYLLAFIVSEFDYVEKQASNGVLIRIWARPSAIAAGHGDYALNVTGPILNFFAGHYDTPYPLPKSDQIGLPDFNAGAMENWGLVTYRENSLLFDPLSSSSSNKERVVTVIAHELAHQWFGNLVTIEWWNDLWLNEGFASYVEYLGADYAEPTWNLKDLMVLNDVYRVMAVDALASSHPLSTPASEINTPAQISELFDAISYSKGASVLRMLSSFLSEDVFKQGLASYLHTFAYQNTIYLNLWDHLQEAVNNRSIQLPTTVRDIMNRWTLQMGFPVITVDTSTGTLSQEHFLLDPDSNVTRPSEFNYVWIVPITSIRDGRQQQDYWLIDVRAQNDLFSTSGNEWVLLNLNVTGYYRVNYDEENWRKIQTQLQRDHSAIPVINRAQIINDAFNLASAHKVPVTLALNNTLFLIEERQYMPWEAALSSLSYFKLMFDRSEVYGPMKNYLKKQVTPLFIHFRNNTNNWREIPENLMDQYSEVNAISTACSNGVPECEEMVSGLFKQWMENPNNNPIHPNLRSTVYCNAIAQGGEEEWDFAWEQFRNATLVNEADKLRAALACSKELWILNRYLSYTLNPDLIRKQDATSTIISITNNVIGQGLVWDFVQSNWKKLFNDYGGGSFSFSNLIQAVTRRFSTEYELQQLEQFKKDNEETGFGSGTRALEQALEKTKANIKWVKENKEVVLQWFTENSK
- PROTOCOL DESCRIPTION: Inhibition of alanyl aminopeptidase enzymatic activity, fluorogenic substrate (Ala)2-rhodamine 110
- Type: biochemical
- REPORTED CONDITIONS: Table 12; read-out: IC50APN
Non-standard residues stand in square brackets, D forms with d. Residues, ends and D or L forms follow the SMILES beside them.
MEASUREMENT LABEL: log10 of IC50 (log10 of the value in µM)

INSERT INTO measurements (molecule, measurement_label, result) VALUES
  ('CN(C)CCCN1CCN(c2nc(N(C)CC(=O)O)c3ncn(Cc4ccc([N+](=O)[O-])cc4)c3n2)CC1', 'log10 of IC50', 1.07),
  ('Cc1ccc(/C=C(\NC(=O)c2ccccc2)C(=O)NCCN2CCOCC2)o1', 'log10 of IC50', 1.74),
  ('C/C(=N/O)c1ccc2c(c1)OCCOCCOc1cc(/C(C)=N\O)ccc1OCCOCCO2', 'log10 of IC50', 0.93),
  ('N#CCCCCCCCCC(=O)NO', 'log10 of IC50', 1.91),
  ('O=C(O)C1N=NC(c2ccc(F)cc2)=CN1O (stereo not drawn)', 'log10 of IC50', 1.23),
  ('NCCCC[C@@H](N)C(=O)N[C@H](Cc1ccccc1)C(=O)N[C@H](Cc1ccc(O)cc1)C(=O)O [A12.011] (H-[dK]-[dF]-[dY]-OH)', 'log10 of IC50', 0.86),
  ('O=C(CCOC(c1ccc(F)cc1)c1ccc(F)cc1)NO', 'log10 of IC50', 1.34),
  ('COC(=O)C(NC(=O)c1ccccc1)(Nc1sc2c(c1C#N)CCC(C(C)(C)C)C2)C(F)(F)F (stereo not drawn)', 'log10 of IC50', 1.64),
  ('CSCCC(Nc1ncnc2c1oc1ccccc12)C(=O)O (stereo not drawn)', 'log10 of IC50', 1.68),
  ('CC(CCc1ccccc1)C(=O)NO (stereo not drawn)', 'log10 of IC50', 1.40),
  ('Brc1cc2c(cc1Br)OCCOCCOCCOCCOCCO2', 'log10 of IC50', -0.15),
  ('O=C1Nc2cc(C(=O)N3CCN(c4ccccc4)CC3)ccc2NC1CSCc1ccccc1F (stereo not drawn)', 'log10 of IC50', 1.79),
  ('Cc1ccc(C(=O)N/C(=C/c2ccco2)C(=O)N(C)C)cc1', 'log10 of IC50', 1.51),
  ('CC1=C(C#N)C(=O)N(CC(C)O)C(=O)/C1=C/c1ccc(-c2cccc(Cl)c2C)o1 (stereo not drawn)', 'log10 of IC50', 1.46),
  ('CSCCC(NC(=O)c1ccc(C(F)(F)F)cc1)C(=O)NO (stereo not drawn)', 'log10 of IC50', 1.71),
  ('CCc1cccc(CC)c1NC(=S)N/N=C1\C(=O)N(CN2CC(C)CC(C)C2)c2ccccc21 (stereo not drawn)', 'log10 of IC50', 0.83),
  ('O=C(OCCN1CCCCC1)C1c2ccccc2Oc2ccccc21', 'log10 of IC50', 1.98),
  ('COc1ccc(C[C@@H](N)C(=O)N[C@H]2[C@H](O)[C@H](n3cnc4c(N(C)C)ncnc43)O[C@@H]2CO)cc1', 'log10 of IC50', 1.32);
